Experiment: Cmax in monkey at 2 mg/kg, po
Format: ADME, organism-based, Macaca mulatta
Design: dose 2 mg/kg, route oral
Settings: rhesus monkey, in vivo
VALUE TYPE: Cmax (ng/mL)

>>> reading("Cc1nnc(N2CCC(C(=O)N3N=CC[C@H]3c3cc(F)cc(F)c3)CC2)o1")
480

====

Experiment: Oral bioavailability in minipig at 2 mg/kg
Type: ADME, organism-based, Sus scrofa
Conditions: pig, in vivo
VALUE TYPE: bioavailability

>>> reading("Cc1nnc(N2CCC(C(=O)N3N=CC[C@H]3c3cc(F)cc(F)c3)CC2)o1")
"65%"

====

Assay: AUC (0 to infinity) in minipig at 1 mg/kg, iv
Type: ADME, organism-based, Sus scrofa
Design: dose 1 mg/kg, route intravenous, time infinity
Settings: pig, in vivo
VALUE TYPE: AUC(0-inf) (ng·h/mL)

>>> reading("Cc1nnc(N2CCC(C(=O)N3N=CC[C@H]3c3cc(F)cc(F)c3)CC2)o1")
1300

====

Assay: Chromatographic hydrophobicity index, log D of the compound at pH 7.4 by reverse-phase HPLC analysis
Format: physicochemical
Conditions: buffer
// boundary case: chromatographic logD equal to 3 maps to no; strictly smaller maps to yes

>>> cat("CC(C)(C)C(=O)N1N=CCC1c1c[nH]cn1 (stereo not given)")
"yes"
>>> cat("O=C(c1cccnc1)N1N=CCC1c1ccccc1 (stereo not given)")
"yes"
>>> cat("O=C(C1CCN(c2ccccn2)CC1)N1N=CC[C@H]1c1ccccc1")
"no"
>>> cat("CC(C)(CO)C(=O)N1N=CCC1c1ccccc1 (stereo not given)")
"no"
>>> cat("CC1=NN(C(=O)C(C)(C)C)[C@H](c2ccccc2)C1")
"no"
>>> cat("CN1CCC(C(=O)N2N=CCC2c2ccccc2)CC1 (stereo not given)")
"yes"
>>> cat("CC(C)(C)C(=O)N1N=CCC1c1ccc(S(C)(=O)=O)cc1 (stereo not given)")
"no"
>>> cat("CC(C)(C)C(=O)N1CCNCC1c1ccccc1 (stereo not given)")
"yes"
>>> cat("O=C(C1CCOCC1)N1N=CCC1c1ccccc1 (stereo not given)")
"no"
>>> cat("CC(C)(C)C(=O)N1N=CCC1C1CCCCC1 (stereo not given)")
"no"
>>> cat("O=C(C1CCN(c2ccccc2)CC1)N1N=CC[C@H]1c1ccccc1")
"no"
>>> cat("O=C(c1cocn1)N1CCC(C(=O)N2N=CCC2c2ccccc2)CC1 (stereo not given)")
"yes"
>>> cat("CC(C)(C)C(=O)N1N=CC[C@H]1c1ccccc1")
"no"
>>> cat("O=C(C1CCCCC1)N1CCC(C(=O)N2N=CCC2c2ccccc2)CC1 (stereo not given)")
"no"
>>> cat("O=C(C1CCN(c2cccnn2)CC1)N1N=CC[C@H]1c1ccccc1")
"no"
>>> cat("O=C(c1cn[nH]c1)N1CCC(C(=O)N2N=CCC2c2ccccc2)CC1 (stereo not given)")
"yes"
>>> cat("CN1CCC(C2CC=NN2C(=O)C(C)(C)C)CC1 (stereo not given)")
"yes"
>>> cat("O=C(c1cc[nH]n1)N1CCC(C(=O)N2N=CCC2c2ccccc2)CC1 (stereo not given)")
"yes"
>>> cat("CC(=O)N1CCC(C(=O)N2N=CCC2c2ccccc2)CC1 (racemic)")
"yes"
>>> cat("CC(C)(C)C(=O)N1N=CCC1c1ccccn1 (stereo not given)")
"no"
>>> cat("CN1CCN(C(=O)C(C)(C)C)C(c2ccccc2)C1 (stereo not given)")
"no"
>>> cat("CC(C)(C)C(=O)N1N=CCC1c1ccncc1 (stereo not given)")
"no"
>>> cat("CC(C)(C)C(=O)N1CCSC1c1ccccc1 (stereo not given)")
"no"
>>> cat("O=C(C1CCN(C(=O)C(F)(F)F)CC1)N1N=CCC1c1ccccc1 (stereo not given)")
"no"
